Counter-ions that a name gives are not always drawn.
Property Label: melting point

Reference set (5 entries):
{"columns": ["Compound", "melting point"],
 "data": [
  ["CN1Cc2cc(Oc3ccccc3)ccc2C(c2ccccc2)C1 (stereo not shown)", "175 to 176 °C (dec.)"],
  ["Cc1c(F)ccc2c1CN(C)CC2c1ccccc1 (stereo not shown)", "185 to 186 °C"],
  ["CN1Cc2c(CO)cccc2C(c2ccccc2)C1 (stereo not shown)", "144 to 146 °C"],
  ["CN1Cc2cc(CO)ccc2C(c2ccccc2)C1 (stereo not shown) (as salt: HCl)", "237 to 240 °C (dec.)"],
  ["Cc1cc(F)c2c(c1)C(C)N(C)C(F)C2c1ccccc1 (stereo not shown) (as salt: HCl)", "194 to 197 °C (dec.)"]
]}

Name the recorded melting point of the item Cc1ccc2c(c1O)CN(C)CC2c1ccccc1 (stereo not shown) in your answer.
260 to 261 °C

Name the recorded melting point of the item Cc1ccc2c(c1)C(C)N(C)CC2c1ccccc1 (stereo not shown) in your answer.
87 to 89 °C

Name the recorded melting point of the item CNCc1cccc2c1CN(C)CC2c1ccccc1 (stereo not shown) in your answer.
278 to 282 °C

Name the recorded melting point of the item Cc1ccc2c(c1F)CN(C)CC2c1ccccc1 (stereo not shown) (as salt: hydrochloride) in your answer.
215 to 216 °C

Name the recorded melting point of the item CN1Cc2cc(C(F)(F)F)ccc2C(c2ccccc2)C1 (stereo not shown) in your answer.
257 to 275 °C

====

Counter-ions that a name gives are not always drawn.
melting point values for the compounds below.

{"columns": ["Compound", "melting point"],
 "data": [
  ["CN1Cc2cc(OCc3ccccc3)ccc2C(c2ccccc2)C1 (stereo not drawn)", "155 to 156 °C"],
  ["CN1Cc2cc(OC(F)(F)F)ccc2C(c2ccccc2)C1 (stereo not drawn)", "150 to 151 °C (dec.)"],
  ["CNCc1ccc2c(c1F)CN(C)CC2c1ccccc1 (stereo not drawn) (as salt: HCl)", "185 to 205 °C"]
]}

Name the recorded melting point of the item COc1c(C)ccc2c1CN(C)CC2c1ccccc1 (stereo not drawn) in your answer.
130 to 131 °C

Name the recorded melting point of the item FCc1ccc2c(c1CF)CN(CF)CC2c1ccccc1 (stereo not drawn) in your answer.
108 to 113 °C

Name the recorded melting point of the item Cc1ccc2c(c1)CN(C)CC2c1ccc(F)c(C)c1 (stereo not drawn) in your answer.
174 to 175 °C
